experimental.system: Fes (UniProt P07332)
Sequence (P07332 whole entry, looked up): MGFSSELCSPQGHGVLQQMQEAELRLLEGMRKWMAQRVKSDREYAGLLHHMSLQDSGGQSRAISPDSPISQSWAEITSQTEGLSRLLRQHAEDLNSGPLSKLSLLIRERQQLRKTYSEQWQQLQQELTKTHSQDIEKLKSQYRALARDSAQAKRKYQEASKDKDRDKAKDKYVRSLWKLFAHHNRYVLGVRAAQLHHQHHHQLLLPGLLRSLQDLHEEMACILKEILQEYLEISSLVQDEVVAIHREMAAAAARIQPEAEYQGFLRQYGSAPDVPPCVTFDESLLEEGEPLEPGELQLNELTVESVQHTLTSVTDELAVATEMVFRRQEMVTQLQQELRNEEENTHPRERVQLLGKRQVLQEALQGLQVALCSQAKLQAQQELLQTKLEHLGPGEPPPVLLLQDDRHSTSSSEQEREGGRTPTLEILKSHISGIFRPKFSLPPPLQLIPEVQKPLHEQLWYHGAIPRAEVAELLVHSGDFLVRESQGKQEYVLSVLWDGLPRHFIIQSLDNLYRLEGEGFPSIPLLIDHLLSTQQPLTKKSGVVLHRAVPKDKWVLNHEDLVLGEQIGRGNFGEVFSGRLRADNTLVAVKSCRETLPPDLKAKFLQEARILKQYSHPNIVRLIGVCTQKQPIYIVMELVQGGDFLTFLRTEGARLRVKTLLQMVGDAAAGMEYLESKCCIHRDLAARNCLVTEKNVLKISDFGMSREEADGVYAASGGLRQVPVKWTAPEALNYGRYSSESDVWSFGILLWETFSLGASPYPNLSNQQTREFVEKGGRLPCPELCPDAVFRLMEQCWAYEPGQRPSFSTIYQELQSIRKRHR
protocol.notes: phosphorylation enrichment, bacterial display (enrichment ratio); higher = better substrate or ligand; peptides without Tyr show the background
endpoint: phosphorylation enrichment
Format: numeric value only, no unit, no commentary.

# phosphorylation enrichment lookup, item KLADVYQAELR [GFAP_Y116]
0.792

# phosphorylation enrichment lookup, item TKDTIYKQPMF [GBA_Y451_F450I]
0.821

# phosphorylation enrichment lookup, item VISNAYVDLSP [HSD17B4_Y602_A606S]
0.818

# phosphorylation enrichment lookup, item VKANTYENYWP [GATM_Y100_K102N]
0.81

# phosphorylation enrichment lookup, item RTLTHYKSAVK [ASNS_Y555]
0.813

----------
experimental.system: EPHB1 (UniProt P54762)
Sequence (P54762 whole entry, looked up): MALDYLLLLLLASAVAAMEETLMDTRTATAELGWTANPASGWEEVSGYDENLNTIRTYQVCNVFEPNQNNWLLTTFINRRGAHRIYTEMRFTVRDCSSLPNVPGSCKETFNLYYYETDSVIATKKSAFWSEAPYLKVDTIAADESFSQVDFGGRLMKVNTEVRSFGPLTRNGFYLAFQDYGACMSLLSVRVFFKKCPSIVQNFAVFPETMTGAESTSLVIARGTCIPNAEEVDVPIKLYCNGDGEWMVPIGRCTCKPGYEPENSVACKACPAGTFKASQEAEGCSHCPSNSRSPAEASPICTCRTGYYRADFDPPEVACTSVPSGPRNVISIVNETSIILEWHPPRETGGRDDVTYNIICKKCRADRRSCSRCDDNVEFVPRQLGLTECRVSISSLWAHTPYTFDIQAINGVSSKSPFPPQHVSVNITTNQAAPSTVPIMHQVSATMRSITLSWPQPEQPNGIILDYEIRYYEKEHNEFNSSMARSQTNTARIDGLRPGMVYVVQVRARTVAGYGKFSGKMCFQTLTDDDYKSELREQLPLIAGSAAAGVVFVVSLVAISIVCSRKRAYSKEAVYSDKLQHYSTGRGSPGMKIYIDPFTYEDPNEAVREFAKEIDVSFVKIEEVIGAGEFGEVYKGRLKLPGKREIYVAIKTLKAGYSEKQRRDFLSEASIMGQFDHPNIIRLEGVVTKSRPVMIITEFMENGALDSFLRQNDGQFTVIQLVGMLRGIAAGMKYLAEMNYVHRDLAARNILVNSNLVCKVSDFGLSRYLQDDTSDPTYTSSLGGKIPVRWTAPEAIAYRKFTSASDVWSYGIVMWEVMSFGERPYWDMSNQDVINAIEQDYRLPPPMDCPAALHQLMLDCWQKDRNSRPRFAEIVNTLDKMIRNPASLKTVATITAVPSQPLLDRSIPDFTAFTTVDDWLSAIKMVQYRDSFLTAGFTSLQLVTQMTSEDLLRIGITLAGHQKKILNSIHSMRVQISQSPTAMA
protocol.notes: phosphorylation enrichment, bacterial display (enrichment ratio); higher = better substrate or ligand; peptides without Tyr show the background
Can you tell me phosphorylation enrichment for the items I'm about to list?

# phosphorylation enrichment lookup, item RREWFYEVIIA [BACE1_Y260_V265A_YF]
0.515

# phosphorylation enrichment lookup, item RKELFYKADGE [SERPINC1_Y272]
0.824

# phosphorylation enrichment lookup, item AQESNYRLLRR [SLC20A2_Y377]
0.48

# phosphorylation enrichment lookup, item PSDLLYILDIQ [ITGA2B_Y845]
1.07

# phosphorylation enrichment lookup, item MIRSAYALRGL [CPS1_Y590_G593R]
0.434

# phosphorylation enrichment lookup, item EPNSRYTCKLE [USH2A_Y3745_Y3747C]
0.556

----------
experimental.system: EPHB1 (UniProt P54762)
protocol.notes: phosphorylation enrichment, bacterial display (enrichment ratio); higher = better substrate or ligand; peptides without Tyr show the background
Parameter threshold = 0.8. Response is t when phosphorylation enrichment meets or exceeds it, else f.

Assess whether reported phosphorylation enrichment for TDDMRYPMKSE [TGDS_Y302_N298D] sits at 0.8 or higher.
f

Assess whether reported phosphorylation enrichment for SDQRRYSLIDP [CLIP2_Y972_R977P] sits at 0.8 or higher.
f

Assess whether reported phosphorylation enrichment for IHFAIYLLKYS [ARMC9_Y107] sits at 0.8 or higher.
f

Assess whether reported phosphorylation enrichment for RIGRKYKRVRF [F8_Y442_K444R] sits at 0.8 or higher.
t

----------
experimental.system: SHP2-C SH2
protocol.notes: SH2 binding enrichment of the phosphorylated peptide, bacterial display (enrichment ratio); higher = better substrate or ligand; peptides without Tyr show the background
Parameter threshold = 0.7. Response is MET when SH2 binding enrichment meets or exceeds it, else NOT MET.

Assess whether reported SH2 binding enrichment for NDDDVYLSLEE [VAV2_Y142_R143L] sits at 0.7 or higher.
NOT MET

Assess whether reported SH2 binding enrichment for YNNYGYGNDGF [HNRNPH3_Y161] sits at 0.7 or higher.
NOT MET

Assess whether reported SH2 binding enrichment for IKGNMYFENSF [EGFR_Y112_R108K_YF] sits at 0.7 or higher.
MET

Assess whether reported SH2 binding enrichment for KFLENYLNRLL [PLD2_Y169_YF] sits at 0.7 or higher.
MET

Assess whether reported SH2 binding enrichment for SVQVDYMKTIL [GLYATL2_Y127] sits at 0.7 or higher.
NOT MET

Assess whether reported SH2 binding enrichment for PDDPDYSLVDD [PSTPIP2_Y323_N322D] sits at 0.7 or higher.
NOT MET

Assess whether reported SH2 binding enrichment for LGSVVYAHSKE [KCNQ2_Y226] sits at 0.7 or higher.
MET

Assess whether reported SH2 binding enrichment for AIYEGYALPHA [ACTC1_Y171_P166A] sits at 0.7 or higher.
MET

----------
experimental.system: Grb2 SH2 (UniProt P62993)
Sequence (P62993 whole entry, looked up): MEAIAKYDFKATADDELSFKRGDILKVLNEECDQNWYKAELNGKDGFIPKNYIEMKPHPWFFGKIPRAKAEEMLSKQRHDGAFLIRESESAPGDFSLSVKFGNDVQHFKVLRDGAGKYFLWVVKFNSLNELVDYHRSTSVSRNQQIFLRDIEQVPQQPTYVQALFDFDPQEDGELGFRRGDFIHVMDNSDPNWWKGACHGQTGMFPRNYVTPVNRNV
protocol.notes: SH2 binding enrichment of the phosphorylated peptide, bacterial display (enrichment ratio); higher = better substrate or ligand; peptides without Tyr show the background
endpoint: SH2 binding enrichment

# SH2 binding enrichment lookup, item PNRILYGDFRQ [MYH6_Y717]
0.918

# SH2 binding enrichment lookup, item PEYVVYKPQME [CCRL2_Y170_F167Y]
0.913

# SH2 binding enrichment lookup, item DEDFLYREELA [POR_Y575_YF]
0.916

# SH2 binding enrichment lookup, item RQIQSYTCEID [DES_Y331_H326R]
0.899

# SH2 binding enrichment lookup, item RQQEVYLLYKQ [RARRES1_Y159_D158V]
0.918

# SH2 binding enrichment lookup, item IVFTSYFLTIL [TAS2R16_Y239]
0.918

# SH2 binding enrichment lookup, item NTVLGYFIGCI [GARS1_Y408_R412C]
0.906

# SH2 binding enrichment lookup, item GIVEDYRPTFY [ACVRL1_Y421_P424T]
0.875

# SH2 binding enrichment lookup, item KLSFSYGWALQ [ALDOB_Y302_R304W]
0.921

# SH2 binding enrichment lookup, item NGPDVYVLPVT [AATK_Y93_L97V]
0.902

----------
Can you tell me phosphorylation enrichment for the items I'm about to list?
experimental.system: FGFR1 (UniProt P11362)
Sequence (P11362 whole entry, looked up): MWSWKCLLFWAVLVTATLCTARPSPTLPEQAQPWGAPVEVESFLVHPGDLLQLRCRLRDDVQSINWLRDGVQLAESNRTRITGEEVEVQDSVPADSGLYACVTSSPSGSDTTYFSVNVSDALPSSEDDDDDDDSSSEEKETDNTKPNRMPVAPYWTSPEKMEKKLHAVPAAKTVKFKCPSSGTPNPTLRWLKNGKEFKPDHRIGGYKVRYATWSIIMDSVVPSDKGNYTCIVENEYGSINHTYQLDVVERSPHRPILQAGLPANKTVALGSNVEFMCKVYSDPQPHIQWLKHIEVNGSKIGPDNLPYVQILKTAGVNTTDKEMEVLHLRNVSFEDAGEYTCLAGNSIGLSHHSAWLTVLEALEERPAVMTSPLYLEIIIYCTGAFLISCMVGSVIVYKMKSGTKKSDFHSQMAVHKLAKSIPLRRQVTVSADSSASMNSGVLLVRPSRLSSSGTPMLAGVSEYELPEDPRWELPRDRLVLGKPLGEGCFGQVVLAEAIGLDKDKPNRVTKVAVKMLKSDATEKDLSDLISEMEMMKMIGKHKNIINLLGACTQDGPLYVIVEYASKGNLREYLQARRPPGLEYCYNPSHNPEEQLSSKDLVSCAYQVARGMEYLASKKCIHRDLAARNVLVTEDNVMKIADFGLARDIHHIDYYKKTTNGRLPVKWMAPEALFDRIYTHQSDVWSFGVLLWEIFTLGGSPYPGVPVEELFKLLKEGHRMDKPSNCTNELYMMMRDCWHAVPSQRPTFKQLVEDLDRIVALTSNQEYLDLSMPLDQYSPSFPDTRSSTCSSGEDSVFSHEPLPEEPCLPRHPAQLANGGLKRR
protocol.notes: phosphorylation enrichment, bacterial display (enrichment ratio); higher = better substrate or ligand; peptides without Tyr show the background
Format: numeric value only, no unit, no commentary.

# phosphorylation enrichment lookup, item INVTIYGKTFR [EFHC1_Y177_I174V]
0.539

# phosphorylation enrichment lookup, item RAVLLYEYVGK [NATD1_Y45]
3.61

# phosphorylation enrichment lookup, item VDHFGYTKDDK [APOB_Y740]
0.497

# phosphorylation enrichment lookup, item CRAVKYLQMVG [AVPR2_Y117]
0.499

# phosphorylation enrichment lookup, item VKANTYEKYWL [GATM_Y100_P105L]
0.582

# phosphorylation enrichment lookup, item ATRDVYNPFET [SCAMP3_Y41_L38R]
0.54

# phosphorylation enrichment lookup, item ARRHPYFFAPE [ALB_Y172_Y174F]
2.85

# phosphorylation enrichment lookup, item SSPQLYLVPFL [TAF4_Y652_P651L]
2.18

# phosphorylation enrichment lookup, item SVVVPYESPEV [TP53_Y220_P222S]
0.561

# phosphorylation enrichment lookup, item FPKDVYVDSKD [NDUFAF4_Y69_L65P]
0.588

# phosphorylation enrichment lookup, item CDKEFYSVHNK [MET_Y1235_Y1230C_YF]
0.441

# phosphorylation enrichment lookup, item YLTSSYINIST [IL23R_Y178]
1.27

# phosphorylation enrichment lookup, item QDLRLYRPHLA [BTK_Y617_G613D]
0.358

# phosphorylation enrichment lookup, item QKLPSYILENN [VPS13B_Y2774]
0.625

# phosphorylation enrichment lookup, item IITDYYVDMKF [MPP4_Y567_V562I]
7.4

# phosphorylation enrichment lookup, item NTFEKYLGEEF [TF_Y669_YF]
0.509

# phosphorylation enrichment lookup, item AYRRGYFDEEM [PLEC_Y2971]
0.477

# phosphorylation enrichment lookup, item VVIVLYFSLWK [SLC6A2_Y249]
0.486

# phosphorylation enrichment lookup, item SVVVPYEPPDV [TP53_Y220_E224D]
0.524

# phosphorylation enrichment lookup, item DKNSSYFADWL [TUBB8_Y340]
1.51

# phosphorylation enrichment lookup, item FKDYFYCWNTF [AICDA_Y146]
8.79

----------
Tested on: Fer (mouse)
protocol.notes: phosphorylation enrichment, bacterial display (enrichment ratio); higher = better substrate or ligand; peptides without Tyr show the background
endpoint: phosphorylation enrichment
Format: numeric value only, no unit, no commentary.

# phosphorylation enrichment lookup, item AKRKGYDMRVD [NEB_Y2770]
0.358

# phosphorylation enrichment lookup, item DEENFYQGSME [ASCC1_Y36_D34N]
0.624

# phosphorylation enrichment lookup, item GDFFRSLAEVA [YWHAG_Y133_Y133S_YF]
0.438

# phosphorylation enrichment lookup, item RFLRGYRQHAY [HLA-A_Y137_D140H]
1.02

# phosphorylation enrichment lookup, item KFLENYLNRLL [PLD2_Y169_YF]
0.462

# phosphorylation enrichment lookup, item VNKIYHPDFIV [LIG3_Y768_Y768H]
0.388

# phosphorylation enrichment lookup, item PGVDRYSLGTS [C5orf42_Y1451]
0.57

# phosphorylation enrichment lookup, item IGMLIYFARKA [VCAM1_Y718_I716L]
0.425

# phosphorylation enrichment lookup, item DASAVYLRDFQ [PLCG2_Y242_H244R]
0.452

----------
experimental.system: Jak2 (UniProt O60674)
Sequence (O60674 whole entry, looked up): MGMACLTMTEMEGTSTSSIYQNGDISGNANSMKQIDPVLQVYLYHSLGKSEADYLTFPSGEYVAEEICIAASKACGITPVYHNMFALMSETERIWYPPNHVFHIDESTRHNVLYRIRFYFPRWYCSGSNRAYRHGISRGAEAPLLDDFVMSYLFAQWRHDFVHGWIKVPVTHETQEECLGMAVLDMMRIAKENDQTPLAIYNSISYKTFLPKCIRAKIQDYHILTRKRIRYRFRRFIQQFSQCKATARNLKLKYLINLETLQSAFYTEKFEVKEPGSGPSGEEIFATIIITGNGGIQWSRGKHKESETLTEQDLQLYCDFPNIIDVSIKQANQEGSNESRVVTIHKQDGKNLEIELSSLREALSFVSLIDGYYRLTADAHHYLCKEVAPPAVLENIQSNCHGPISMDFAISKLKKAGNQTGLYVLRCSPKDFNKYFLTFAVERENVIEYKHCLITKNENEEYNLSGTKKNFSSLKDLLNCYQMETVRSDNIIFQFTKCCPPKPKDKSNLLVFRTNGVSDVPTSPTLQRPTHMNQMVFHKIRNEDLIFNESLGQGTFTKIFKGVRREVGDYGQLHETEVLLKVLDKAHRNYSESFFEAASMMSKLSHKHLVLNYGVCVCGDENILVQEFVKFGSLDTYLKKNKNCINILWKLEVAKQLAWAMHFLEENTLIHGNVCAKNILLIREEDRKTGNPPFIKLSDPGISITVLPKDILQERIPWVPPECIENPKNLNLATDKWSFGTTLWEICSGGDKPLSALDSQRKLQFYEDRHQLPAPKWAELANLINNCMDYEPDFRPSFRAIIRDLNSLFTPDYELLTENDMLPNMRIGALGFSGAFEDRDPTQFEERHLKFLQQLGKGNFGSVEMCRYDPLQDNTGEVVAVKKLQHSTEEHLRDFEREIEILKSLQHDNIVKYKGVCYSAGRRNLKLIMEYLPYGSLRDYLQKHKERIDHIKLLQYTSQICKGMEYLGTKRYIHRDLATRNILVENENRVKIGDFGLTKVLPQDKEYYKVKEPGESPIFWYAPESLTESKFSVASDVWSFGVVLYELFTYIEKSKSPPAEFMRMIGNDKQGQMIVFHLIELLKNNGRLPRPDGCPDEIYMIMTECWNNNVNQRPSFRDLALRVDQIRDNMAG
protocol.notes: phosphorylation enrichment, bacterial display (enrichment ratio); higher = better substrate or ligand; peptides without Tyr show the background
Can you tell me phosphorylation enrichment for the items I'm about to list?

# phosphorylation enrichment lookup, item WHHTFYNELRV [ACTA1_Y93]
0.783

# phosphorylation enrichment lookup, item MKGDYYCYLAE [YWHAG_Y131_R132C]
5.78

# phosphorylation enrichment lookup, item RLPNGYGLAYR [DLK1_Y262_S260N]
0.509

# phosphorylation enrichment lookup, item KLKPIYFHTQG [AR_Y916_V912L]
0.513

# phosphorylation enrichment lookup, item GIYSGYDDAWD [POLR1C_Y36_N32I]
1.05

# phosphorylation enrichment lookup, item MIRSAYALRGL [CPS1_Y590_G593R]
0.543

# phosphorylation enrichment lookup, item KPGVNYFFRVS
0.986

# phosphorylation enrichment lookup, item ILTYKYLQKPM [KIT_Y547]
0.801

# phosphorylation enrichment lookup, item PYRSIYFSSPK [MPG_Y75]
0.657
